FYI, the data here is from ChEMBL document CHEMBL1201862.

System: U-251
assay_procedure: NCI tumour cell line growth inhibition, 48 h
The source made the active and inactive calls. Cut-off read from the data, not from the text of the source: active = GI50 up to about 1.1 µM and inactive = higher.
assay_metric: GI50

Some solved entries appear below for comparison.
CCOC(=O)c1c(-c2ccccc2)oc(-c2ccccc2)c1C(=O)OCC: > 100 µM (inactive)
COC(=O)CCC(NC(=S)N/N=C/c1ccco1)C(=O)OC (stereo unspecified): > 100 µM (inactive)
NC(=O)NC(=O)c1ccc(NC(=O)CBr)cc1: 0.984 µM (active)
Cc1ccc(/C=C2\N=C(N3CCCC(CO)C3)NC2=O)cc1 (stereo unspecified): > 100 µM (inactive)

Tell us which GI50 value is on record for C=C(C)COC1CCCCO1 (stereo unspecified)
> 100 µM (inactive)

Annotate the compound CC1OC(=O)c2ccccc2NC1=O (stereo unspecified) with its measured GI50.
> 100 µM (inactive)

Answer with the recorded GI50 for the compound listed here: "N=C(N)NS(=O)(=O)c1ccc(NC(=O)c2cccc3c(NNc4ccc(S(N)(=O)=O)cc4)c4ccccc4nc23)cc1"
44.2 µM (inactive)

Note GI50 for the compound shown: "COc1ccc(-c2cc(=O)c3c(O)c(OC)c(OC)c(OC)c3o2)cc1OC"
39.7 µM (inactive)

Tell us which GI50 value is on record for COC(=N)c1csc(C2OC(CO)C(O)C2O)n1 (stereo unspecified)
> 100 µM (inactive)

Read off the recorded GI50 for COC(=O)C(C(=O)C(=O)Nc1c(C)cccc1C(C)(C)C)c1nc2ccc(Cl)cc2nc1O (stereo unspecified)
> 100 µM (inactive)

Tell me GI50 reported for "CCn1nc2c3c(ncn3C(C)(C)O2)c1=O"
> 100 µM (inactive)

###

Tested on: DLD-1
assay_procedure: NCI tumour cell line growth inhibition, 48 h
Active and inactive are the calls of the source. Rule as the data show it: active = GI50 up to about 1.1 µM and inactive = higher.
// classify into active, inactive

CC(C)Cc1cccc(C(C)C)c1NC(=O)CCC(=O)N/N=C1\C(=N/NC(=O)CCC(=O)Nc2c(C(C)C)cccc2C(C)C)C(c2ccc3c(c2)OCO3)Oc2ccccc21 (stereo unspecified): inactive

Per the records of this test, what outcome belongs to NC(=S)/N=C(/c1nc2ccc(Cl)cc2nc1O)C(O)c1ccccc1Cl (stereo unspecified) ?
inactive

Each compound tested received a call. Report the one for CC(C)Cc1ccc(C(C)C(=O)N2CCN(/C=C/c3ccccc3)CC2)cc1 (stereo unspecified) .
inactive

Tell me the recorded outcome of this test for "CC(C)NC(=O)CCN(C(=O)O)S(=O)(=O)c1ccc(NC(=O)c2ccccc2)cc1" .
inactive

Identify the outcome logged in this assay for the compound shown: CCN(CC)CCCC(C)Nc1c2ccc(Cl)cc2nc2ccc(OC)cc12 (stereo unspecified)
inactive

Field: outcome | Entry: "O=C1c2ccccc2C(Br)(Br)c2ccccc21"
inactive

# fetch the recorded call for CCCCCCCC1(c2ccc(N)cc2)CCC(=O)NC1=O (stereo unspecified) here
inactive

Assay result, entry CP(=O)(CCSc1ccccc1)c1ccccc1 (stereo unspecified) — outcome?
inactive

Name the outcome recorded for O=C(c1ccc(Cl)cc1)C1OC12C(=O)Nc1c(Cl)cc(Cl)cc12 (stereo unspecified) in the assay.
inactive

###

Tested on: RXF 393
assay_procedure: NCI tumour cell line growth inhibition, 48 h
Active and inactive are the calls of the source. Rule as the data show it: active = GI50 up to about 1.1 µM and inactive = higher. Non-standard residues stand in square brackets, D forms with d. Residues, ends and D or L forms follow the SMILES beside them. *: point of attachment. Ac5c = NC1(C(=O)O)CCCC1; Boc = CC(C)(C)OC(=O)*; tBu = CC(C)(C)*
Could you please pick one outcome from this set? active, inactive

Solved entries (count: 2):
CC(OC(C)(C)C)C1NC(=O)C(CCCCNC(=O)OC(C)(C)C)NC(=O)C(Cc2c[nH]c3ccccc23)NC(=O)C(Cc2ccccc2)NC(=O)C2(CCCC2)NC(=O)C(Cc2ccccc2)NC1=O (configuration not stated) (cyclo([Ac5c]FWK(Boc)T(tBu)F); configuration not given here): inactive
CCOC(=O)c1cn2c(n1)sc1cc(Cl)ccc12: inactive

What was the test verdict on CCCC(O)[C@@]1(CC)CC(C)C(O)(C2(C)C[C@H](C)[C@@H](C(CC)C(=O)C(C)[C@@H](O)[C@H](C)C3OC(O)(C(CC)C(=O)O)[C@@H](C)C(O)C3CC)O2)O1 (some centres not stated) ?
active

###

System: SNB-19
assay_procedure: NCI tumour cell line growth inhibition, 48 h
Active and inactive are the calls of the source. Rule as the data show it: active = GI50 up to about 1.1 µM and inactive = higher.
Form entry, call: pick from TRUE = active, FALSE = inactive

Reference set, count: 3
Sc1nc(S)nc(Oc2ccc(Cl)c(Cl)c2)n1: FALSE
O=C1C2Nc3ccccc3SC2C(=O)N1c1ccccc1C(F)(F)F (stereo not given): FALSE
CCOC(=O)/C=C/n1c2ccccc2c(=O)c2cc(OC)ccc21: FALSE

Answer briefly: the call reported for "C/N=c1\ss/c(=N\C(=S)N(C)C)n1-c1ccccc1" in this assay.
FALSE

Hi, do you know how "COC(=O)c1ccc(/C=C2\CCc3ccccc3C2=O)cc1" came out in this test?
FALSE

Outcome logged for "Cc1c(-c2ccccc2)c(C#N)c2nnc(C(N)=O)c(N)n12" in this assay:
FALSE

Recorded test outcome, item O=C1c2c(O)ccc(O)c2C(=O)c2c(NCCNC(=O)C(O)C(O)C(O)C(O)CO)ccc(NCCNC(=O)C(O)C(O)C(O)C(O)CO)c21 (stereo not given)
TRUE

Any idea what this test logged for "O=C1/C(=C\c2ccc([N+](=O)[O-])cc2)Sc2scc(-c3ccc(O)c(O)c3)[n+]21" ?
FALSE

Give the logged outcome of this assay for the following compound: COC(=N)c1csc(C2OC(CO)C(O)C2O)n1 (stereo not given)
FALSE

Just curious, what result did "COC(=O)c1ccc(/N=N/N(C)COc2ccc(Br)cc2)cc1" get here?
FALSE

###

Test system: SF-295
assay_procedure: NCI tumour cell line growth inhibition, 48 h
The source made the active and inactive calls. Cut-off read from the data, not from the text of the source: active = GI50 up to about 1.1 µM and inactive = higher.
Quick list: GI50 per entry.

Worked examples follow.
COC(=O)C(Cc1c[nH]c2ccccc12)NC1=Nc2ccncc2S(=O)(=O)N1c1ccccc1 (centres undefined): 52.1 µM (inactive)
C=CCCCCCCCCCOC1C=CC(O)C(CO)O1 (centres undefined): 66.2 µM (inactive)
O=C(c1ccc(Cl)cc1)C1OC12C(=O)Nc1c(Cl)cc(Cl)cc12 (centres undefined): 46.3 µM (inactive)
COc1ccc(NC(=S)N/N=C/c2cccc(C)n2)cc1: 4.09 µM (inactive)
Cc1ccc(S(=O)(=O)N/N=C/C(=C/c2ccc(Cl)cc2)CC(/C=N/NS(=O)(=O)c2ccc(C)cc2)=C\c2ccc(Cl)cc2)cc1: 14 µM (inactive)

Complete the entry with GI50 for CC(C)[Si](Oc1ccc(CC2N(C(=O)c3ccc([N+](=O)[O-])cc3)C(CCc3ccccc3)CC2(C)C=O)cc1)(C(C)C)C(C)C (centres undefined)
7.05 µM (inactive)

Output GI50 of CCc1cccc(CC)c1NC(=O)C(C#N)C1=C(Cl)C(=O)c2ccccc2C1=O (centres undefined)
15.7 µM (inactive)

Check the records and state GI50 for CC(C)[Si](OC1=CCCCCC12C(=O)N(C)c1ccccc12)(C(C)C)C(C)C (centres undefined)
13.5 µM (inactive)

# return recorded GI50 for entry "C=C1[C@@H]([C@@]2(C)C=CC(=O)C(C)(C)[C@@H]2CC(=O)OC)CC[C@@]2(C)[C@H](c3ccoc3)OC(=O)[C@H]3O[C@]132"
87.5 µM (inactive)

###

Tested on: EKVX
assay_procedure: NCI tumour cell line growth inhibition, 48 h
Activity calls are given as the source filed them. Cut-off read from the data, not from the text of the source: active = GI50 up to about 1.1 µM and inactive = higher.
assay_metric: GI50

Example entries begin here.
CSc1nc2c(c(=O)n1C)N=C(c1ccccc1)[C@H](C(CC(=O)c1ccccc1)c1ccccc1)C(c1ccccc1)N2 (some centres not stated): 15.8 µM (inactive)
COc1ccc(NCC#N)cc1: > 100 µM (inactive)
CC(C)(O)/C1=C/C=C/CCCCCCCCCC1: > 100 µM (inactive)
Cc1ccc(C(=O)/C=C2/Nc3ccccc3NC2=O)c(C)c1: 8.77 µM (inactive)
CC(=O)C(C(=N)C#N)C(=O)Nc1ccccc1 (configuration not stated): > 100 µM (inactive)
Oc1[nH]c(Nc2cccc(Cl)c2)nc2ncnc1-2: > 100 µM (inactive)
O=C1c2ccccc2C(Br)(Br)c2ccccc21: > 100 µM (inactive)
O=C1[C@@H]2C(c3ccccc3[N+](=O)[O-])=[N+](c3ccccc3)O[C@@H]2C(=O)N1c1ccc(Cc2ccc(N3C(=O)[C@H]4C(c5ccccc5[N+](=O)[O-])=[N+](c5ccccc5)O[C@H]4C3=O)cc2)cc1: > 100 µM (inactive)

Please look at this molecule and report its GI50: "COc1c2ccsc2c(OC)c2ccsc12"
> 100 µM (inactive)

Specify reported GI50 for the molecule shown: "O=C(Nc1nncs1)NS(=O)(=O)n1cnc2ccccc21"
> 100 µM (inactive)

Quote GI50 reported for C[C@]12CCC(=O)CC1CCCC2=O (some centres not stated) please.
> 100 µM (inactive)

Identify GI50 associated with the molecule "COC(=O)NN=C1C(C)(C)C(=O)C1(C)C"
> 100 µM (inactive)

Give GI50 for the following molecule: "Nc1n[n+](CC(=O)c2ccccc2)c2sc(-c3ccccc3)nn12"
> 100 µM (inactive)

Supply measured GI50 of "Cn1c2ccccc2c(=NNc2cccc(C(=O)O)c2)c2ccccc21" in your reply.
5.57 µM (inactive)

Report GI50 for "COC(=O)c1ccc(/C=C2\CCc3ccccc3C2=O)cc1"
> 100 µM (inactive)

Answer with the recorded GI50 of "CCCCC#COP(=O)(OCC)OCC" only.
> 100 µM (inactive)

Entry "O=C(/C=C1\Nc2ccccc2N\C1=C/C(=O)c1ccc(F)cc1)c1ccc(F)cc1" needs its GI50 filled in; supply it.
> 100 µM (inactive)
